Values were extracted from patent US20210095028A1.

The following binders are shown together with reported IL-2 secretion in T cell activation, EC50 values.
TARGET: T1, human TIGIT over-expressed on cells (human, UniProt Q495A1 22-244)
T1 sequence: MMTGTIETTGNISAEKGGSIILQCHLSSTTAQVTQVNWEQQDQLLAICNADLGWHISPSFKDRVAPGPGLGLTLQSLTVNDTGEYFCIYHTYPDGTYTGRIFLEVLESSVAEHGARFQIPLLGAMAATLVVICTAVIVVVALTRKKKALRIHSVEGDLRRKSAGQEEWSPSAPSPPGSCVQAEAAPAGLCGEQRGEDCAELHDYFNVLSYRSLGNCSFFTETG
ASSAY METHOD TEXT: cell-based or functional assay
Write the number in pM without appending the unit.

>  <BINDER>
64G1E9B4 (antibody, V domains shown, Mouse monoclonal antibody; also called mouse anti-human TIGIT monoclonal antibody 64G1E9B4) VH: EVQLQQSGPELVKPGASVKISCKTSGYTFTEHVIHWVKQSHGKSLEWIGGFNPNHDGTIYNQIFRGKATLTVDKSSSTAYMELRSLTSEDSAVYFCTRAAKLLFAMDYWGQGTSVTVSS VL: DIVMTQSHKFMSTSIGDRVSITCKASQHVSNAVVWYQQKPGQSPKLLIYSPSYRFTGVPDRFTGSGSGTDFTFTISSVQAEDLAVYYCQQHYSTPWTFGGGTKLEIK

>  <RESULT VALUE>
820

$$$$
>  <BINDER>
104G12E12G2 (antibody, V domains shown, Mouse monoclonal antibody; also called mouse anti-human TIGIT monoclonal antibody 104G12E12G2) VH: EVQLQQSGPELVKPGASVKISCKASGYSFTGSYIHWVKQNHVKTLEWIGRINPHNGPTSYNQNFKGKASLTVDLSSSTAYMEVHSLTSEDSAVYYCVRYDGYYGGALDYWGQGTSVTVSS VL: DIQMTQSPSSLSASLGERVSLTCRASQEISGYLSWLQQKPDGTIKRLIYAASTLDSGVPKRFSGSRSGSDYSLTISSLESEDFADYYCLQYASYPYTFGGGTKLEIK

>  <RESULT VALUE>
3310

$$$$

Shift focus to the following entry.
Query block: Quick one: IL-2 secretion in T cell activation, EC50 for 83G6H11C12 (antibody, V domains shown, Mouse monoclonal antibody; also called mouse anti-human TIGIT monoclonal antibody 83G6H11C12) VH: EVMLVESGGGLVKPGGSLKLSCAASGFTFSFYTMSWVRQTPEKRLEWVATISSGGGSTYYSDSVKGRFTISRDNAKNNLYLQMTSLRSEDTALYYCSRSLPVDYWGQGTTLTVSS VL: QIVLTQSPAIMSASLGERVTMTCTASSSVSSSYLHWYQQKPGSSPKLWIYSTSNLASGVPARFSGSGSGTSYSLTISSMEAEDAATYYCHLYHHSPYTFGGGTKLEIK ?
Result block: 830
